# tgt: PKCα (Homo sapiens)
# Construct: His6; purchased Millipore; host or cells: baculovirus in Sf21 cells
# measurement description: In vitro enzyme assay (time-resolved fluorescence kinase assay), PKCα, 100 μM ATP
# Format: biochemical
# details: 100 μM ATP; read-out: PKCα enzyme IC50
pIC50: −log10 of the molar value.
The following molecules are listed with their measured pIC50 values.

Example results:
1) CC1C(=O)NN=C2COc3cc(-c4ccccc4F)c(N4CC5CCC4CN5)cc3N21 (stereo not drawn) [Example 229]: 5.00 to 6.00
2) Cc1cc2c(cc1N1CCC13CCNCC3)N1C(=NNC(=O)C1C)CO2 (stereo not drawn) [Example 115, trifluoroacetic acid]: 5.00 to 6.00
3) C[C@@H]1C(=O)NN=C2COc3cc(-c4ccc(F)cc4)c(NC4CNC4)cc3N21 [Example 9]: 5.00 to 6.00

Then there is this molecule:
Task item: State its pIC50 on PKCα (Homo sapiens): C[C@H]1C(=O)NN=C2COc3cc4ccn([C@]5(C)CCNC5)c4cc3N21 [Example 165]
Reply: 5.00 to 6.00
